B1: CAMK2B (parent)
chain: YQQIKAGAYDFPSPEWDTVTPEAK

- Variants of: B1
- measurement_description: protein stability index of a GFP-peptide fusion (GPS, HEK-293T) (PSI 1-6); higher = more stable;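 further: lentivirally expressed fusions sorted by FACS into six bins by GFP to DsRed ratio, PSI derived from sequencing read proportions per bin multiplied by bin number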
- condition_label: c terminus: a fixed tail appended
Decision: protein stability index compared against 3; not below it gives true, below it gives false.

P12D: true
A8C: true
D10I: false
T18N: true
K24G: true

Incoming: Tell me whether protein stability index is at least 3 here: A23Q
Outgoing: true

Incoming: Another variant to check: D17Y
Outgoing: false

Incoming: Same read-out for D17C ?
Outgoing: false

Incoming: Entry to check: A8N
Outgoing: true

Incoming: Y9W ?
Outgoing: false
